target-or-system: N-type calcium channel (NTCC) (Homo sapiens)
experiment-description: FLIPR calcium mobilization assay for N-type calcium channel
experimental-context: calcium mobilization in vitro assay; differentiated IMR32 cells
quantity-name: IC50 (nM)

1 = CC(C)N(C1CCN(CC(=O)Nc2ccc(F)cc2)CC1)S(=O)(=O)c1cccc(C(F)(F)F)c1
2 = CCOc1ccccc1NC(=O)CN1CCC(N(C(C)C)S(=O)(=O)c2cccc(C(F)(F)F)c2)CC1 [Compound 42c]
3 = CC(C)N(C1CCN(C(=O)C(N)Cc2cccc3ccccc23)CC1)S(=O)(=O)c1cccc(C(F)(F)F)c1 (centres unmarked)
Give the ascending ranking of the items by reported IC50. The response must list the labels following the requested ordering. 2, 1, 3
(2: 110 nM, 1: 280 nM, 3: 2550 nM)

====

target-or-system: N-type calcium channel (NTCC) (Homo sapiens)
experiment-description: FLIPR calcium mobilization assay for N-type calcium channel
experimental-context: calcium mobilization in vitro assay; differentiated IMR32 cells
Experimental: Unless noted otherwise, cell culture reagents were purchased from Mediatech of Herndon, Md. […] One day prior to performing this assay, differentiated IMR32 cells were treated with 1× CellStripper, and seeded on poly-D-lysine-coated 96-well clear-bottom black plates (Becton Dickinson, Franklin Lakes, N.J.) at 200,000 cells/well. […] Plates were then transferred to a Fluorimetric Imaging Plate Reader (FLIPR^96, Molecular Devices, Inc., Sunnyvale, Calif.) for assay. […]
pIC50: −log10 of the molar value.
quantity-name: pIC50

| molecule | pIC50 |
| --- | --- |
| CN(C1CCN(CC(=O)Nc2ccc(C(F)(F)F)cc2)CC1)S(=O)(=O)c1cccc(C(F)(F)F)c1 | 6.00 |
| CC(C)N(C1CCN(CC(=O)Nc2ccc(C#N)cc2)CC1)S(=O)(=O)c1cccc(C(F)(F)F)c1 [Compound 42g] | 6.74 |

a = O=C(CC(=O)N1CCC(N(C2CC2)S(=O)(=O)c2cccc(C(F)(F)F)c2)CC1)Nc1ccc(F)cc1
b = CCC(NCc1ccccc1)C(=O)N1CCC(N(C(C)C)S(=O)(=O)c2cccc(C(F)(F)F)c2)CC1 (stereo not shown)
Please tell me which of the two, a or b , has the higher reported pIC50 value. Give the chosen item's label as your response. a

====

target-or-system: N-type calcium channel (NTCC) (Homo sapiens, UniProt Q00975)
Sequence (Q00975 whole entry): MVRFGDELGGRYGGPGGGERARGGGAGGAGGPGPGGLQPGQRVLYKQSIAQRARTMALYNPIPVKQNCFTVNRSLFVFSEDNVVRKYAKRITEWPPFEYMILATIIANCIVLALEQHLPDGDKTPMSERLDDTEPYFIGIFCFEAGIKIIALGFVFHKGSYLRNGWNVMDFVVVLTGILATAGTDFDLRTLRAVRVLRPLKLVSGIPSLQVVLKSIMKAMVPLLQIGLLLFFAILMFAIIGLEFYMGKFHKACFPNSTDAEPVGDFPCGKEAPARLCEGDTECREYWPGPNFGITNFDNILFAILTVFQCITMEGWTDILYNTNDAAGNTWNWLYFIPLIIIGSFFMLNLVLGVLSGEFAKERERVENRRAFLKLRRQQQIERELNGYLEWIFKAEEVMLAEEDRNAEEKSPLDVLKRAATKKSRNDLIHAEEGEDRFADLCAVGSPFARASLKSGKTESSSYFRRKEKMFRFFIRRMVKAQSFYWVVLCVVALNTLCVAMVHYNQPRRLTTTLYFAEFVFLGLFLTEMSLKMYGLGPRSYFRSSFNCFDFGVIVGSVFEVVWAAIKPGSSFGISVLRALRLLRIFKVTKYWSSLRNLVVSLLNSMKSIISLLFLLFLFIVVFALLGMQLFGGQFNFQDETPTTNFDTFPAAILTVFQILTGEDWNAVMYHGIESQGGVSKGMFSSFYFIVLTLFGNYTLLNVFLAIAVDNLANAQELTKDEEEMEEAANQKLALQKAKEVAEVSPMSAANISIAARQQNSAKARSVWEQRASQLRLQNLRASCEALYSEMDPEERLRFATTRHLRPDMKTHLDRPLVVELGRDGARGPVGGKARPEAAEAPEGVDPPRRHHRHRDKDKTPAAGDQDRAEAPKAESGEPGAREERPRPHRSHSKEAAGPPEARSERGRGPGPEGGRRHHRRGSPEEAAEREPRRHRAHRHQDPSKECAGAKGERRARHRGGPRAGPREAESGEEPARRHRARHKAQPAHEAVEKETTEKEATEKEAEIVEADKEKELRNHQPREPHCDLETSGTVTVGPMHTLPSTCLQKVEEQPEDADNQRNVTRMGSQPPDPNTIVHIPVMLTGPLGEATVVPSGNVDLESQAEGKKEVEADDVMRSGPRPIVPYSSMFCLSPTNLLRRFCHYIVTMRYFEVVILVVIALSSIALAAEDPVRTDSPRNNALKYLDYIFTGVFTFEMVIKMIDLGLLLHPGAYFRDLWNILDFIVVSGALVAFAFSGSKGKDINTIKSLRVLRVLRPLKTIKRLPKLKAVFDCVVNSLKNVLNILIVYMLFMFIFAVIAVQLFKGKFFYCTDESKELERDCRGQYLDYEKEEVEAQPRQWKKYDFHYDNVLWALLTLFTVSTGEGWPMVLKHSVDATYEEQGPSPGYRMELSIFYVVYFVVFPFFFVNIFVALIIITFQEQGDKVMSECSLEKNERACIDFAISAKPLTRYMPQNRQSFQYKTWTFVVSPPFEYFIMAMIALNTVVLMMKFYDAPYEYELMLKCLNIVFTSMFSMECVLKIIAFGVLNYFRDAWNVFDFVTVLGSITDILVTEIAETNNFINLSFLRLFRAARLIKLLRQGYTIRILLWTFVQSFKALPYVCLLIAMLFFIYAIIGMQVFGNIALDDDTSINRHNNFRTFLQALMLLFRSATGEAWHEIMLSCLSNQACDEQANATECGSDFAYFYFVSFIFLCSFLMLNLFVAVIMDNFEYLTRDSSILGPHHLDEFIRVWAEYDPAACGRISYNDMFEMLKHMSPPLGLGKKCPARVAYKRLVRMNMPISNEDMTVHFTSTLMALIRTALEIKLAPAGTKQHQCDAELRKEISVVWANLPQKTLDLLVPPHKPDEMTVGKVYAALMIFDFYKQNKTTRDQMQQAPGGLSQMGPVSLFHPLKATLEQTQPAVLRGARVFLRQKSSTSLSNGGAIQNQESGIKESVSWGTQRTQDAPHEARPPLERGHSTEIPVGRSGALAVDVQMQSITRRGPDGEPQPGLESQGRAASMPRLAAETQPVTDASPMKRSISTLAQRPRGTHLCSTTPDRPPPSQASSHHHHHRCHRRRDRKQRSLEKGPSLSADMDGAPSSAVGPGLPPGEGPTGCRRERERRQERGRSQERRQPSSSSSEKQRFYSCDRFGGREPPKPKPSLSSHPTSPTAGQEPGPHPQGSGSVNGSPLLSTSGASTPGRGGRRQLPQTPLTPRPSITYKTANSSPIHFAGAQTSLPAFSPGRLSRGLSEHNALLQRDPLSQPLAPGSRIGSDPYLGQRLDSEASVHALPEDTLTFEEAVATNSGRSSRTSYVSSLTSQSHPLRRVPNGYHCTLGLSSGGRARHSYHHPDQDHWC
Sequence (P54289 25-956 partner limits assumed): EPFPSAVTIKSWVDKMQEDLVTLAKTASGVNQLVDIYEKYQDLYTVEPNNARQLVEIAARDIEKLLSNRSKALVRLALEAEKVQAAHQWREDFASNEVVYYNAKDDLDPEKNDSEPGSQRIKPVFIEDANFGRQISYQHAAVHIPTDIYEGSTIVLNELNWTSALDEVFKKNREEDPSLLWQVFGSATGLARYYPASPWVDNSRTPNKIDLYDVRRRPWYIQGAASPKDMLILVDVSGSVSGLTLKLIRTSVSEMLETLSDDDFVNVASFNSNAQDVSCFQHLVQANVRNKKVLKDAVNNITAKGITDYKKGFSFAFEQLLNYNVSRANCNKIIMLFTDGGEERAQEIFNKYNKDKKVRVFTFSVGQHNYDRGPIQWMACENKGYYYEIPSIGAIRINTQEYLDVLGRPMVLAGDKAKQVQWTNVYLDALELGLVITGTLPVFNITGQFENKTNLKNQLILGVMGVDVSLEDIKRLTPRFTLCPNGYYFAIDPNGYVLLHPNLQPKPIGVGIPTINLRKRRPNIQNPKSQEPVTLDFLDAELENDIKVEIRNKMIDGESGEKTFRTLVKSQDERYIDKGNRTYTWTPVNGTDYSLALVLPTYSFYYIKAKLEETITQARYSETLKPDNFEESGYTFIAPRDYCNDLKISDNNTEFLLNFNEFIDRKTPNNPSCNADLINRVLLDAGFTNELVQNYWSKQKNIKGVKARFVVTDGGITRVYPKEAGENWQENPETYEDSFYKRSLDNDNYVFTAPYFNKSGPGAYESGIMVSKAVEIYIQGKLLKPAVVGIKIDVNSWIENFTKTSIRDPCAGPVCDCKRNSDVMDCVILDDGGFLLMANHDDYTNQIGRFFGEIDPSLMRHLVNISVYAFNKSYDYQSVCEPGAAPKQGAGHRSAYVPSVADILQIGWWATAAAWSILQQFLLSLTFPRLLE
Sequence (P54289 957-1103 partner limits assumed): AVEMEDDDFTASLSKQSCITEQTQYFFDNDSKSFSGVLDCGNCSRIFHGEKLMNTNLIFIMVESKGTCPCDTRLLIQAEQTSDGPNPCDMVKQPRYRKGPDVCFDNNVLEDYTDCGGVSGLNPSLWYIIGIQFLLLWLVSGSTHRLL
Sequence (P54284 whole entry partner): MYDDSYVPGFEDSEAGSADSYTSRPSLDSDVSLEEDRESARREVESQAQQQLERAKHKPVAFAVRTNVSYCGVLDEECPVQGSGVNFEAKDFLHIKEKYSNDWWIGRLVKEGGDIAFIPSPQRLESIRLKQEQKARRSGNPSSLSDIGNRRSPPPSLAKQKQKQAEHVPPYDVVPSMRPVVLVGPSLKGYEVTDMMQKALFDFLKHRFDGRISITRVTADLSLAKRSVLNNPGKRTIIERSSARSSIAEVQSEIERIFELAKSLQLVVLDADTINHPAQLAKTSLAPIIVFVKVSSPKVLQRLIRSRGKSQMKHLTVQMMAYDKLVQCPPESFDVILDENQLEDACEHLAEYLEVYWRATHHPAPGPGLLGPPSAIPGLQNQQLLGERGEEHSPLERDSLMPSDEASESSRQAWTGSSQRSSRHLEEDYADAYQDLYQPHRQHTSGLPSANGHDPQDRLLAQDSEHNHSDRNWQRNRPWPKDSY
experiment-description: FLIPR calcium mobilization assay for N-type calcium channel
experimental-context: calcium mobilization in vitro assay; differentiated IMR32 cells
quantity-name: IC50 (µM)

P = CC(C)CNC(=O)CN1CCC(N(C2CC2)S(=O)(=O)c2cccc(F)c2)CC1
Q = CC(C)C[C@H](NC1CCCC1)C(=O)N1CCC(N(C(C)C)S(=O)(=O)c2cccc(C(F)(F)F)c2)CC1 [Compound 88c]
R = COc1ccc(NCCC(=O)N2CCC(N(C(C)C)S(=O)(=O)c3cccc(C(F)(F)F)c3)CC2)cc1
S = CC(C)N(C1CCN(C(=O)C2CNC2)CC1)S(=O)(=O)c1cccc(C(F)(F)F)c1
Sort the 4 molecules by IC50; largest first, smallest last. The response must list the labels following the requested ordering. P, S, R, Q
(P: 8 µM, S: 2.91 µM, R: 1 µM, Q: 0.62 µM)

====

target-or-system: N-type calcium channel (NTCC) (Homo sapiens, UniProt Q00975)
experiment-description: FLIPR calcium mobilization assay for N-type calcium channel
experimental-context: calcium mobilization in vitro assay; differentiated IMR32 cells
pIC50: −log10 of the molar value.
quantity-name: pIC50

Recorded pIC50, per entry:
| compound | target-or-system | pIC50 |
| --- | --- | --- |
| CC(C)N(C1CCN(C(=O)CCNc2ccccc2F)CC1)S(=O)(=O)c1cccc(C(F)(F)F)c1 | N-type calcium channel (NTCC) (Homo sapiens, UniProt Q00975) | 6.26 |
| COc1ccc(NC(=O)CN2CCC(N(C(C)C)S(=O)(=O)c3cccc(C(F)(F)F)c3)CC2)cc1 [Compound 42h] | N-type calcium channel (NTCC) (Homo sapiens, UniProt Q00975) | 6.34 |
| O=C(CNCc1ccc(F)cc1)N1CCC(N(C2CC2)S(=O)(=O)c2ccccc2)CC1 | N-type calcium channel (NTCC) (Homo sapiens, UniProt Q00975) | 5.57 |
| Cc1cccc(S(=O)(=O)N(C2CC2)C2CCN(CC(=O)NCC(C)C)CC2)c1 | N-type calcium channel (NTCC) (Homo sapiens, UniProt Q00975) | 5.23 |
| O=C(Nc1ccc(F)cc1)C(=O)N1CCC(N(C2CC2)S(=O)(=O)c2cccc(C(F)(F)F)c2)CC1 | N-type calcium channel (NTCC) (Homo sapiens, UniProt Q00975) | 6.15 |

A = O=C(CN1CCC(N(C2CC2)S(=O)(=O)c2cccc(C(F)(F)F)c2)CC1)NCc1cc(C(F)(F)F)cc(C(F)(F)F)c1
B = CC(NCCCn1ccnc1)C(=O)N1CCC(N(C(C)C)S(=O)(=O)c2cccc(C(F)(F)F)c2)CC1 (stereo not drawn)
C = COc1ccc(CNCC(=O)N2CCC(N(C(C)C)S(=O)(=O)c3cccc(C(F)(F)F)c3)CC2)cc1
D = CC(C)N(C1CCN(C(=O)CCN(C)Cc2ccccc2)CC1)S(=O)(=O)c1cccc(C(F)(F)F)c1
E = CC(C)CNC(=O)CCN1CCC(N(C(C)C)S(=O)(=O)c2cccc(C(F)(F)F)c2)CC1 [Compound 107c]
With regard to pIC50, arrange the entries in ascending order, please. The response must list the labels following the requested ordering. B, E, C, D, A
(B: 5.02, E: 5.70, C: 6.15, D: 6.38, A: 6.66)

I = CC(C)N(C1CCN(C(=O)CCNc2cccc(F)c2)CC1)S(=O)(=O)c1cccc(C(F)(F)F)c1
II = O=C(CN1CCC(N(C2CC2)S(=O)(=O)c2cccc(C(F)(F)F)c2)CC1)Nc1ccc(F)c(C(F)(F)F)c1
Please tell me which of the two, I or II , has the higher reported pIC50 value. Give the chosen item's label as your response. II
(II: 6.21, I: 5.98)

# credit: patent US8791264B2
